Target: DDR2 (human)
Test: KINOMEscan competition binding
Settings: compound 10.0 µM
RECORDED_METRIC: kinase still bound, per cent of control (%)
Record the value in %, omitting the unit from your answer.

Query: kinase still bound, per cent of control; subject: CCN1CCN(Cc2ccc(NC(=O)c3ccc(C)c(/C=C/c4cnc(Nc5cc(N6CCNCC6)nc(C)n5)cn4)c3)cc2C(F)(F)F)CC1
0

Query: kinase still bound, per cent of control; subject: CCN1CCN(Cc2ccc(NC(=O)c3ccc(C)c(Oc4ccnc5[nH]ccc45)c3)cc2C(F)(F)F)CC1
5.1

Query: kinase still bound, per cent of control; subject: CCOc1cc(N2CCC(N3CCCCC3)CC2)ccc1Nc1nc(Nc2ccccc2S(=O)(=O)C(C)C)c2cn[nH]c2n1
93

Query: kinase still bound, per cent of control; subject: COc1cc(N2CCC(N3CCN(C)CC3)CC2)ccc1Nc1ncc(Cl)c(Nc2ccccc2S(=O)(=O)C(C)C)n1
14

====

Target: EPHA8 (human) (UniProt P29322)
Sequence (P29322 whole entry, looked up): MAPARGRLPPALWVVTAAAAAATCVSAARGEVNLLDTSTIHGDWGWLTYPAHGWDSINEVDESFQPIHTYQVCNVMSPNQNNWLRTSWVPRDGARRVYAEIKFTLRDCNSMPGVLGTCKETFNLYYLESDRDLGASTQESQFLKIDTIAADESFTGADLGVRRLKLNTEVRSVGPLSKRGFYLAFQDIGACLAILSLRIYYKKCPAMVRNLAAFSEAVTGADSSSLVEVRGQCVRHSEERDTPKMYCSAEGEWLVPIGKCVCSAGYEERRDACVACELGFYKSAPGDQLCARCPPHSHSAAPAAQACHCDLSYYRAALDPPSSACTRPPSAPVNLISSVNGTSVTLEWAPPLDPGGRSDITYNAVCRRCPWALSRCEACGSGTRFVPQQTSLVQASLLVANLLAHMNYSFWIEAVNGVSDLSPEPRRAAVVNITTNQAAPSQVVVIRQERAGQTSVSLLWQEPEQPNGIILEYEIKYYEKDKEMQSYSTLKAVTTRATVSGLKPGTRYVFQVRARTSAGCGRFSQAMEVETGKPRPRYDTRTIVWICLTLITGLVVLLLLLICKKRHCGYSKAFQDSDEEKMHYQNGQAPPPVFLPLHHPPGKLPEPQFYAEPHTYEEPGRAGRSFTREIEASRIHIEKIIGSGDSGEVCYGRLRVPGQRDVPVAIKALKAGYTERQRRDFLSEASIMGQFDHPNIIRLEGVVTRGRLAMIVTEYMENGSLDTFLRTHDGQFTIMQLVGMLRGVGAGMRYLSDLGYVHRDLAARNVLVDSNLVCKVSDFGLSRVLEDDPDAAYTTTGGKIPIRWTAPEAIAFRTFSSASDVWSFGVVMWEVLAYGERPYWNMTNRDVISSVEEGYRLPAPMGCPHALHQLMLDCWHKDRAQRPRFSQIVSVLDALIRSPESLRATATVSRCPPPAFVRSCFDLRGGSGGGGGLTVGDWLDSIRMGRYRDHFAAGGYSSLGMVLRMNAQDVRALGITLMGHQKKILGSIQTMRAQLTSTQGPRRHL
Experiment: KINOMEscan competition binding
Conditions: compound 10.0 µM
RECORDED_METRIC: kinase still bound, per cent of control (%)
Record the value in %, omitting the unit from your answer.

Query: kinase still bound, per cent of control; subject: COc1cc(N2CCC(N3CCN(C)CC3)CC2)ccc1Nc1ncc(Cl)c(Nc2ccccc2S(=O)(=O)C(C)C)n1
40

Query: kinase still bound, per cent of control; subject: CCN1CCN(Cc2ccc(NC(=O)c3ccc(C)c(/C=C/c4cnc(Nc5cc(N6CCNCC6)nc(C)n5)cn4)c3)cc2C(F)(F)F)CC1
0.35

Query: kinase still bound, per cent of control; subject: CCOc1cc(N2CCC(N3CCCCC3)CC2)ccc1Nc1nc(Nc2ccccc2S(=O)(=O)C(C)C)c2cn[nH]c2n1
100

Query: kinase still bound, per cent of control; subject: CCN1CCN(Cc2ccc(NC(=O)c3ccc(C)c(Oc4ccnc5[nH]ccc45)c3)cc2C(F)(F)F)CC1
0.1

====

Tested on: EGFR (human), P00533 [L861Q]
Test: KINOMEscan competition binding
Settings: compound 10.0 µM
RECORDED_METRIC: kinase still bound, per cent of control (%)
Record the value in %, omitting the unit from your answer.

# returns recorded kinase still bound, per cent of control (system: EGFR (human), P00533 [L861Q]) for COc1cc(N2CCC(N3CCN(C)CC3)CC2)ccc1Nc1ncc(Cl)c(Nc2ccccc2S(=O)(=O)C(C)C)n1
0.15

# returns recorded kinase still bound, per cent of control (system: EGFR (human), P00533 [L861Q]) for CCN1CCN(Cc2ccc(NC(=O)c3ccc(C)c(Oc4ccnc5[nH]ccc45)c3)cc2C(F)(F)F)CC1
15

# returns recorded kinase still bound, per cent of control (system: EGFR (human), P00533 [L861Q]) for CCN1CCN(Cc2ccc(NC(=O)c3ccc(C)c(/C=C/c4cnc(Nc5cc(N6CCNCC6)nc(C)n5)cn4)c3)cc2C(F)(F)F)CC1
0.85

# returns recorded kinase still bound, per cent of control (system: EGFR (human), P00533 [L861Q]) for CCOc1cc(N2CCC(N3CCCCC3)CC2)ccc1Nc1nc(Nc2ccccc2S(=O)(=O)C(C)C)c2cn[nH]c2n1
7.7

====

Target: MAPK13 (human)
Assay: KINOMEscan competition binding
Conditions: compound 10.0 µM
RECORDED_METRIC: kinase still bound, per cent of control (%)
Record the value in %, omitting the unit from your answer.

Query: kinase still bound, per cent of control; subject: CCN1CCN(Cc2ccc(NC(=O)c3ccc(C)c(/C=C/c4cnc(Nc5cc(N6CCNCC6)nc(C)n5)cn4)c3)cc2C(F)(F)F)CC1
83

Query: kinase still bound, per cent of control; subject: COc1cc(N2CCC(N3CCN(C)CC3)CC2)ccc1Nc1ncc(Cl)c(Nc2ccccc2S(=O)(=O)C(C)C)n1
40

Query: kinase still bound, per cent of control; subject: CCN1CCN(Cc2ccc(NC(=O)c3ccc(C)c(Oc4ccnc5[nH]ccc45)c3)cc2C(F)(F)F)CC1
0.55

Query: kinase still bound, per cent of control; subject: CCOc1cc(N2CCC(N3CCCCC3)CC2)ccc1Nc1nc(Nc2ccccc2S(=O)(=O)C(C)C)c2cn[nH]c2n1
100

====

Biological target: TYK2 JH2 pseudokinase (human) (UniProt P29597)
Sequence (P29597 whole entry, looked up): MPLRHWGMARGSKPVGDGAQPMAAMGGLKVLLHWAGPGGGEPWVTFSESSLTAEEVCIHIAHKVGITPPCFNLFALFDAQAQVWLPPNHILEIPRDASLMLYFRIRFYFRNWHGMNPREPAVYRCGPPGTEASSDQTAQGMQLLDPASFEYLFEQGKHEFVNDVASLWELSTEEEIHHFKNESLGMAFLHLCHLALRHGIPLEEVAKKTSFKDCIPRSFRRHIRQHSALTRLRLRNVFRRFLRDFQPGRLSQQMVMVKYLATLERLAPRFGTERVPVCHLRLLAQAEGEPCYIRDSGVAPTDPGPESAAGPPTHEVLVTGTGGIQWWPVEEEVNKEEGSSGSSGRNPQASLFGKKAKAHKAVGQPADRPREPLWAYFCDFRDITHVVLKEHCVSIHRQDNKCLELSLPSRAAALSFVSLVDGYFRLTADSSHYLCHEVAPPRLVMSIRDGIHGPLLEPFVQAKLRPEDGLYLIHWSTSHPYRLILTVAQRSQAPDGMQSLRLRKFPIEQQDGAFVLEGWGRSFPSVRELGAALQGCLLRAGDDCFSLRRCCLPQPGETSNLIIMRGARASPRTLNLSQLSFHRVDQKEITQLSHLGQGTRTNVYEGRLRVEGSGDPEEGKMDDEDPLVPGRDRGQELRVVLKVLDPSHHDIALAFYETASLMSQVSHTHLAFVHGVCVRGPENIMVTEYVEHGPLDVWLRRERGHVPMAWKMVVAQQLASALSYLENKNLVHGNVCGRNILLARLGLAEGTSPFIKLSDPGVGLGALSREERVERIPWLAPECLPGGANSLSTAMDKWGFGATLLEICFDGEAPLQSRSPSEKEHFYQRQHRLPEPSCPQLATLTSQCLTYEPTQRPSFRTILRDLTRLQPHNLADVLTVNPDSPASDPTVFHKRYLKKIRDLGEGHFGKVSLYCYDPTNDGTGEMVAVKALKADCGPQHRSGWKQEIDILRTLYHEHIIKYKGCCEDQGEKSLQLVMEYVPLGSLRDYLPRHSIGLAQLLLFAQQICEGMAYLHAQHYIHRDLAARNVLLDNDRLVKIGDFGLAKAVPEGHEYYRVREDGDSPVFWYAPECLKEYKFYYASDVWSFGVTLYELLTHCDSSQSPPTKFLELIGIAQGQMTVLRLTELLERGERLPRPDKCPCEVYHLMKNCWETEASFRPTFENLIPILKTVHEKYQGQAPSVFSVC
Assay: KINOMEscan competition binding
Conditions: compound 10.0 µM
For each record, write down the corresponding kinase still bound, per cent of control.
Record the value in %, omitting the unit from your answer.

# returns recorded kinase still bound, per cent of control (system: TYK2 JH2 pseudokinase (human) (UniProt P29597)) for CCOc1cc(N2CCC(N3CCCCC3)CC2)ccc1Nc1nc(Nc2ccccc2S(=O)(=O)C(C)C)c2cn[nH]c2n1
63

# returns recorded kinase still bound, per cent of control (system: TYK2 JH2 pseudokinase (human) (UniProt P29597)) for COc1cc(N2CCC(N3CCN(C)CC3)CC2)ccc1Nc1ncc(Cl)c(Nc2ccccc2S(=O)(=O)C(C)C)n1
11

# returns recorded kinase still bound, per cent of control (system: TYK2 JH2 pseudokinase (human) (UniProt P29597)) for CCN1CCN(Cc2ccc(NC(=O)c3ccc(C)c(Oc4ccnc5[nH]ccc45)c3)cc2C(F)(F)F)CC1
0

# returns recorded kinase still bound, per cent of control (system: TYK2 JH2 pseudokinase (human) (UniProt P29597)) for CCN1CCN(Cc2ccc(NC(=O)c3ccc(C)c(/C=C/c4cnc(Nc5cc(N6CCNCC6)nc(C)n5)cn4)c3)cc2C(F)(F)F)CC1
100

====

Biological target: CDK17 (human)
Assay: KINOMEscan competition binding
Conditions: compound 10.0 µM
For each record, write down the corresponding kinase still bound, per cent of control.
Record the value in %, omitting the unit from your answer.

Query: kinase still bound, per cent of control; subject: CCN1CCN(Cc2ccc(NC(=O)c3ccc(C)c(Oc4ccnc5[nH]ccc45)c3)cc2C(F)(F)F)CC1
0.1

Query: kinase still bound, per cent of control; subject: CCN1CCN(Cc2ccc(NC(=O)c3ccc(C)c(/C=C/c4cnc(Nc5cc(N6CCNCC6)nc(C)n5)cn4)c3)cc2C(F)(F)F)CC1
60

Query: kinase still bound, per cent of control; subject: CCOc1cc(N2CCC(N3CCCCC3)CC2)ccc1Nc1nc(Nc2ccccc2S(=O)(=O)C(C)C)c2cn[nH]c2n1
100

Query: kinase still bound, per cent of control; subject: COc1cc(N2CCC(N3CCN(C)CC3)CC2)ccc1Nc1ncc(Cl)c(Nc2ccccc2S(=O)(=O)C(C)C)n1
9.9

====

For each record, write down the corresponding kinase still bound, per cent of control.
Target: FGFR3 (human) (UniProt P22607)
Sequence (P22607 whole entry, looked up): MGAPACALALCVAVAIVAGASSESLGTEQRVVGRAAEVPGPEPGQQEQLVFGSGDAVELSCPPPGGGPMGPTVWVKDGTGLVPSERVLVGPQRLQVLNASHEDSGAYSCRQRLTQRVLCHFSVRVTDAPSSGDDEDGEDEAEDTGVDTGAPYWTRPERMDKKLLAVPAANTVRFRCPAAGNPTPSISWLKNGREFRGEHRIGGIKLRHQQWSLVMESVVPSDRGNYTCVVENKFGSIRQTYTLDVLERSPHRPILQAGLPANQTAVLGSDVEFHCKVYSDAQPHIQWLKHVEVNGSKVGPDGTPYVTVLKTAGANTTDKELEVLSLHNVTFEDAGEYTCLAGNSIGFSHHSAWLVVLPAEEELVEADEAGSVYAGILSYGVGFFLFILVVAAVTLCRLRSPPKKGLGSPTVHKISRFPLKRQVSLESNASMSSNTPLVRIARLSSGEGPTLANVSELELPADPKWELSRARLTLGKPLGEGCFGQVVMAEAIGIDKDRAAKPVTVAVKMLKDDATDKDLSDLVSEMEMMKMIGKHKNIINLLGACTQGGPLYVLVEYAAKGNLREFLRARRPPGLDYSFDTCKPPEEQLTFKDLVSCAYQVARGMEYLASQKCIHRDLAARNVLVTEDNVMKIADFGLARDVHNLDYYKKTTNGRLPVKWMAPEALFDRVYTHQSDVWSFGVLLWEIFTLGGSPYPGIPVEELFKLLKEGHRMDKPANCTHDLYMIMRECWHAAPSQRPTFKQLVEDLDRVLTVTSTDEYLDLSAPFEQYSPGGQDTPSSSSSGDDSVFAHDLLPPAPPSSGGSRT
Experiment: KINOMEscan competition binding
Conditions: compound 10.0 µM
Record the value in %, omitting the unit from your answer.

# returns recorded kinase still bound, per cent of control (system: FGFR3 (human) (UniProt P22607)) for COc1cc(N2CCC(N3CCN(C)CC3)CC2)ccc1Nc1ncc(Cl)c(Nc2ccccc2S(=O)(=O)C(C)C)n1
2.6

# returns recorded kinase still bound, per cent of control (system: FGFR3 (human) (UniProt P22607)) for CCOc1cc(N2CCC(N3CCCCC3)CC2)ccc1Nc1nc(Nc2ccccc2S(=O)(=O)C(C)C)c2cn[nH]c2n1
94

# returns recorded kinase still bound, per cent of control (system: FGFR3 (human) (UniProt P22607)) for CCN1CCN(Cc2ccc(NC(=O)c3ccc(C)c(Oc4ccnc5[nH]ccc45)c3)cc2C(F)(F)F)CC1
9.4

# returns recorded kinase still bound, per cent of control (system: FGFR3 (human) (UniProt P22607)) for CCN1CCN(Cc2ccc(NC(=O)c3ccc(C)c(/C=C/c4cnc(Nc5cc(N6CCNCC6)nc(C)n5)cn4)c3)cc2C(F)(F)F)CC1
12

====

Molecular target: UniProtKB P06239
Sequence (P06239 whole entry, looked up): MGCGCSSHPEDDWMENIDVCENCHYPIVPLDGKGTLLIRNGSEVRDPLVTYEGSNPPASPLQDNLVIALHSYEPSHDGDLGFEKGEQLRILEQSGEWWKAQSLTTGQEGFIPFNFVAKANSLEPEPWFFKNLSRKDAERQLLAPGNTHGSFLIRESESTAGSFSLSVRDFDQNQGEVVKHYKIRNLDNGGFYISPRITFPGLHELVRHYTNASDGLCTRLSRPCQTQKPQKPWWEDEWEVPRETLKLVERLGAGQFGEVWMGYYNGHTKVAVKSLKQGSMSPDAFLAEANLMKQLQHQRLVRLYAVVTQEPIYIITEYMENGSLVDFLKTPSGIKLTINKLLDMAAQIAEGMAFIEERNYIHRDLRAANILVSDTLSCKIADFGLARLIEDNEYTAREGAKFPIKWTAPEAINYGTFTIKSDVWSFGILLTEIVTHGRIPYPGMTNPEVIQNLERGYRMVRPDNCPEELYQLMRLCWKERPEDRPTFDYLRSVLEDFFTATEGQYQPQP
Test: KINOMEscan competition binding
Conditions: compound 10.0 µM
RECORDED_METRIC: kinase still bound, per cent of control (%)
Record the value in %, omitting the unit from your answer.

# returns recorded kinase still bound, per cent of control (system: UniProtKB P06239) for COc1cc(N2CCC(N3CCN(C)CC3)CC2)ccc1Nc1ncc(Cl)c(Nc2ccccc2S(=O)(=O)C(C)C)n1
0.1

# returns recorded kinase still bound, per cent of control (system: UniProtKB P06239) for CCN1CCN(Cc2ccc(NC(=O)c3ccc(C)c(/C=C/c4cnc(Nc5cc(N6CCNCC6)nc(C)n5)cn4)c3)cc2C(F)(F)F)CC1
0.45

# returns recorded kinase still bound, per cent of control (system: UniProtKB P06239) for CCN1CCN(Cc2ccc(NC(=O)c3ccc(C)c(Oc4ccnc5[nH]ccc45)c3)cc2C(F)(F)F)CC1
0.8

# returns recorded kinase still bound, per cent of control (system: UniProtKB P06239) for CCOc1cc(N2CCC(N3CCCCC3)CC2)ccc1Nc1nc(Nc2ccccc2S(=O)(=O)C(C)C)c2cn[nH]c2n1
84

Hello, the source for this data is the kinase profiling compilation of Christmann-Franck et al. (2016), in case you need it.
